Origin of values: patent EP4635952A1

Assay: Solid-state stability (HPLC purity and XRPD crystal form on storage)
Assay type: physicochemical
Details: 25°C /60%RH/open, 1 week, HPLC
measured.property: Purity (area %)

CNCc1ccc(NS(=O)(=O)c2ccsc2)c(-c2ccco2)c1 [Tartrate crystal form H]	98.71
CNCc1ccc(NS(=O)(=O)c2ccsc2)c(-c2ccco2)c1 [Pyroglutamate crystal form I]	98.61
CNCc1ccc(NS(=O)(=O)c2ccsc2)c(-c2ccco2)c1 [benzene sulfonate crystal form J]	98.87

* * *

Test: Solid-state stability (HPLC purity and XRPD crystal form on storage)
Assay type: physicochemical
Details: starting sample before storage, HPLC
Counter-ions that a name gives are not always drawn.
measured.property: Initial purity (area %)

CNCc1ccc(NS(=O)(=O)c2ccsc2)c(-c2ccco2)c1 [malate crystal form F]	98.72
CNCc1ccc(NS(=O)(=O)c2ccsc2)c(-c2ccco2)c1 [Phosphate crystal form G]	98.11
CNCc1ccc(NS(=O)(=O)c2ccsc2)c(-c2ccco2)c1 [free crystal form A]	98.11
CNCc1ccc(NS(=O)(=O)c2ccsc2)c(-c2ccco2)c1 [Malonate crystal form K]	98.64
CNCc1ccc(NS(=O)(=O)c2ccsc2)c(-c2ccco2)c1 [fumarate crystal form B]	98.55
CNCc1ccc(NS(=O)(=O)c2ccsc2)c(-c2ccco2)c1 [succinate crystal form E]	98.82
CNCc1ccc(NS(=O)(=O)c2ccsc2)c(-c2ccco2)c1 [Pyroglutamate crystal form I]	98.61
CNCc1ccc(NS(=O)(=O)c2ccsc2)c(-c2ccco2)c1 [benzene sulfonate crystal form J]	98.87
CNCc1ccc(NS(=O)(=O)c2ccsc2)c(-c2ccco2)c1 [hydrochloride crystal form C]	99.02
CNCc1ccc(NS(=O)(=O)c2ccsc2)c(-c2ccco2)c1 [sulfate crystal form D]	98.77
CNCc1ccc(NS(=O)(=O)c2ccsc2)c(-c2ccco2)c1 [Tartrate crystal form H]	98.71

* * *

Assay: Solid-state stability (HPLC purity and XRPD crystal form on storage)
Format: physicochemical
Settings: 25°C /60%RH/open, 1 week, HPLC
measured.property: Purity (area %)

CNCc1ccc(NS(=O)(=O)c2ccsc2)c(-c2ccco2)c1 [free crystal form A]	98.18
CNCc1ccc(NS(=O)(=O)c2ccsc2)c(-c2ccco2)c1 [malate crystal form F]	98.72
CNCc1ccc(NS(=O)(=O)c2ccsc2)c(-c2ccco2)c1 [succinate crystal form E]	98.92
CNCc1ccc(NS(=O)(=O)c2ccsc2)c(-c2ccco2)c1 [fumarate crystal form B]	98.53

* * *

Test: Solid-state stability (HPLC purity and XRPD crystal form on storage)
Assay type: physicochemical
Settings: 25°C /60%RH/open, 1 week, HPLC
Counter-ions that a name gives are not always drawn.
measured.property: Purity (area %)

CNCc1ccc(NS(=O)(=O)c2ccsc2)c(-c2ccco2)c1 [Phosphate crystal form G]	98.11
CNCc1ccc(NS(=O)(=O)c2ccsc2)c(-c2ccco2)c1 [hydrochloride crystal form C]	98.97
CNCc1ccc(NS(=O)(=O)c2ccsc2)c(-c2ccco2)c1 [Malonate crystal form K]	98.64
CNCc1ccc(NS(=O)(=O)c2ccsc2)c(-c2ccco2)c1 [sulfate crystal form D]	98.74

* * *

Assay: Solid-state stability (HPLC purity and XRPD crystal form on storage)
Format: physicochemical
Settings: 40°C /75%RH/open, 4 weeks, HPLC
Structures can show the parent of a compound that is named as a salt.
measured.property: Purity (area %)

CNCc1ccc(NS(=O)(=O)c2ccsc2)c(-c2ccco2)c1 [free crystal form A]	98.13
CNCc1ccc(NS(=O)(=O)c2ccsc2)c(-c2ccco2)c1 [Malonate crystal form K]	98.46
CNCc1ccc(NS(=O)(=O)c2ccsc2)c(-c2ccco2)c1 [sulfate crystal form D]	98.78
CNCc1ccc(NS(=O)(=O)c2ccsc2)c(-c2ccco2)c1 [Phosphate crystal form G]	98.01
CNCc1ccc(NS(=O)(=O)c2ccsc2)c(-c2ccco2)c1 [Tartrate crystal form H]	98.53
CNCc1ccc(NS(=O)(=O)c2ccsc2)c(-c2ccco2)c1 [Pyroglutamate crystal form I]	98.32
CNCc1ccc(NS(=O)(=O)c2ccsc2)c(-c2ccco2)c1 [succinate crystal form E]	98.98
CNCc1ccc(NS(=O)(=O)c2ccsc2)c(-c2ccco2)c1 [fumarate crystal form B]	98.52
CNCc1ccc(NS(=O)(=O)c2ccsc2)c(-c2ccco2)c1 [benzene sulfonate crystal form J]	98.79
CNCc1ccc(NS(=O)(=O)c2ccsc2)c(-c2ccco2)c1 [malate crystal form F]	98.68
CNCc1ccc(NS(=O)(=O)c2ccsc2)c(-c2ccco2)c1 [hydrochloride crystal form C]	99
